Where do the numbers come from? From the Human Domainome abundance scans (Beltran et al. 2025).

B1: Mineralocorticoid receptor, residues 600 to 675; numbered along this chain, P08235 (parent)
chain: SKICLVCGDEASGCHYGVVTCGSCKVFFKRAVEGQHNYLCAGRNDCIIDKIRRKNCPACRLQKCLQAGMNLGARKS

# Variants of: B1
# test name: abundance fitness (aPCA) (normalised: wild type 0, dead -1); higher = more abundant; growth selection in yeast, the domain comes from the species named
# test settings: Homo sapiens
just bin them by abundance fitness: bottom bin = under -0.2, middle bin = from -0.2 up to -0.05, top bin = -0.05 and over

// below: answered variants
mutation name | class name
I3G | middle bin
I3W | bottom bin
K25A | middle bin
V18D | middle bin
A41D | top bin

Into which category would you place `G22Q` ? middle bin

Into which category would you place `T20G` ? middle bin
